These measurements were taken from ChEMBL document CHEMBL1671864.

- test: AUC in healthy human plasma at 20 mg, po administered as single ascending doses as solution during 10 hrs overnight fasting state
- Assay type: ADME, organism-based
- Design: time < 10 hr, dose 20 mg, route oral
quantity: AUC at 10 h
Please answer in the form of a number followed by its unit of measurement.

Query C[C@H]1[C@H](N2CCS(=O)(=O)CC2)O[C@@H]2O[C@@]3(C)CC[C@H]4[C@H](C)CC[C@@H]1[C@@]24OO3 [ARTEMIFONE] yields AUC at 10 h of 65.7 ng·h/mL

----------
- test: AUC in healthy human plasma at 40 mg, po administered as two 20 mg immediate release tablets daily for 3 days during 10 hrs overnight fasting state measured after 3 day
- Type: ADME, organism-based
- Parameters: dose 40 mg, time < 10 hr, route oral
quantity: AUC at 10 h

Value of AUC at 10 h reported for the molecule C[C@H]1[C@H](N2CCS(=O)(=O)CC2)O[C@@H]2O[C@@]3(C)CC[C@H]4[C@H](C)CC[C@@H]1[C@@]24OO3 is 191 ng·h/mL

----------
- test: Cmax in healthy human plasma at 20 mg, po administered as single ascending doses as solution during 10 hrs overnight fasting state
- Type: ADME, organism-based
- Set-up: dose 20 mg, route oral
quantity: Cmax (ng/mL)
Expressed in ng/mL, but write only the number.

// Cmax value for C[C@H]1[C@H](N2CCS(=O)(=O)CC2)O[C@@H]2O[C@@]3(C)CC[C@H]4[C@H](C)CC[C@@H]1[C@@]24OO3 [ARTEMIFONE] : 57.3

----------
- Test system: Plasma
- test: Ratio of Ratio of AUC (0 to infinity) in healthy human plasma at 40 mg, po administered as two 20 mg immediate release tablets daily for 3 days during 10 hrs overnight fasting state measured after 1 day to Ratio of AUC (0 to infinity) in healthy human plasma at 40 mg, po administered as two 20 mg immediate release tablets daily for 3 days during 10 hrs overnight fasting state measured after 3 day
- Type: ADME, organism-based
- assay conditions: in vivo
quantity: Ratio (%)
Express the result in % but write the number alone.

Input C[C@H]1[C@H](N2CCS(=O)(=O)CC2)O[C@@H]2O[C@@]3(C)CC[C@H]4[C@H](C)CC[C@@H]1[C@@]24OO3 . Output Ratio: 104

----------
- test: Half life in healthy human plasma at 40 mg, po administered as single ascending doses as solution during 10 hrs overnight fasting state
- Format: ADME, organism-based
quantity: half-life (min)
The figure you give is taken to be in min; do not add the unit.

For C[C@H]1[C@H](N2CCS(=O)(=O)CC2)O[C@@H]2O[C@@]3(C)CC[C@H]4[C@H](C)CC[C@@H]1[C@@]24OO3 the molecule record lists half-life as 212

----------
- test: Tmax in healthy human plasma at 20 mg, po administered as single ascending doses as solution during 10 hrs overnight fasting state
- Format: ADME, organism-based
quantity: Tmax (min)
Output spec: scalar in min, unitless text.

get_value(item= C[C@H]1[C@H](N2CCS(=O)(=O)CC2)O[C@@H]2O[C@@]3(C)CC[C@H]4[C@H](C)CC[C@@H]1[C@@]24OO3 [ARTEMIFONE] , readout=Tmax) returns 30

----------
- test: Cmax in healthy human plasma at 80 mg, po administered as single immediate release tablets during 10 hrs overnight fasting state
- Format: ADME, organism-based
- Design: dose 80 mg, route oral
quantity: Cmax (ng/mL)
All answers are understood in ng/mL, so give the number only.

Entry C[C@H]1[C@H](N2CCS(=O)(=O)CC2)O[C@@H]2O[C@@]3(C)CC[C@H]4[C@H](C)CC[C@@H]1[C@@]24OO3 [ARTEMIFONE] ; Cmax = 140

----------
- test: Apparent volume of distribution with respect to the bioavailability in healthy human at 40 mg, po administered as two 20 mg immediate release tablets daily for 3 days during 10 hrs overnight fasting state measured after 3 day
- Format: ADME, organism-based
- assay conditions: in vivo, read-out: Vc/F
quantity: Vd/F (L/kg)
Report as a plain number; the unit L/kg is understood.

Quick note, Vd/F for C[C@H]1[C@H](N2CCS(=O)(=O)CC2)O[C@@H]2O[C@@]3(C)CC[C@H]4[C@H](C)CC[C@@H]1[C@@]24OO3 [ARTEMIFONE] landed at 16.1

----------
- test: Mean residence time in healthy human at 80 mg, po administered as four 20 mg immediate release tablets daily for 3 days during 10 hrs overnight fasting state measured after 3 day
- Format: ADME, organism-based
- assay conditions: in vivo
quantity: MRT

C[C@H]1[C@H](N2CCS(=O)(=O)CC2)O[C@@H]2O[C@@]3(C)CC[C@H]4[C@H](C)CC[C@@H]1[C@@]24OO3 yielded MRT of 3.53 h

----------
- test: Mean residence time in healthy human at 30 mg, po administered as single ascending doses as solution during 10 hrs overnight fasting state
- Format: ADME, organism-based
- assay conditions: in vivo
quantity: MRT (h)
Please state the figure in h; there is no need to write the unit.

MRT for C[C@H]1[C@H](N2CCS(=O)(=O)CC2)O[C@@H]2O[C@@]3(C)CC[C@H]4[C@H](C)CC[C@@H]1[C@@]24OO3 [ARTEMIFONE] is 2.29

----------
- test: Tmax in healthy human plasma at 40 mg, po administered as two 20 mg immediate release tablets daily for 3 days during 10 hrs overnight fasting state measured after 3 day
- Format: ADME, organism-based
quantity: Tmax (h)
State the answer as a number, implicitly in h.

In plain terms, C[C@H]1[C@H](N2CCS(=O)(=O)CC2)O[C@@H]2O[C@@]3(C)CC[C@H]4[C@H](C)CC[C@@H]1[C@@]24OO3 [ARTEMIFONE] has a documented Tmax of 1.13

----------
- test: Apparent oral clearance in healthy human at 20 mg, po administered as single ascending doses as solution during 10 hrs overnight fasting state
- Format: ADME, organism-based
- assay conditions: in vivo
quantity: CL/F
Enter the number, and then the unit.

The recorded CL/F for C[C@H]1[C@H](N2CCS(=O)(=O)CC2)O[C@@H]2O[C@@]3(C)CC[C@H]4[C@H](C)CC[C@@H]1[C@@]24OO3 is 5080 mL/min

----------
- test: AUC in healthy human plasma at 40 mg, po administered as two 20 mg immediate release tablets daily for 3 days during 10 hrs overnight fasting state measured after 1 day
- Type: ADME, organism-based
- Design: time < 10 hr, dose 40 mg, route oral
quantity: AUC at 10 h (ng·h/mL)
Respond numerically; units are ng·h/mL and should not be typed.

The value of AUC at 10 h measured for the compound C[C@H]1[C@H](N2CCS(=O)(=O)CC2)O[C@@H]2O[C@@]3(C)CC[C@H]4[C@H](C)CC[C@@H]1[C@@]24OO3 turned out to be 184

----------
- test: Half life in healthy human plasma at 20 mg, po administered as single ascending doses as solution during 10 hrs overnight fasting state
- Assay type: ADME, organism-based
quantity: half-life (h)
Give just the number in h; leave the unit off.

// C[C@H]1[C@H](N2CCS(=O)(=O)CC2)O[C@@H]2O[C@@]3(C)CC[C@H]4[C@H](C)CC[C@@H]1[C@@]24OO3 : half-life value = 3.48

----------
- test: Half life in healthy human plasma at 80 mg, po administered as single immediate release tablets during 10 hrs overnight fasting state
- Type: ADME, organism-based
quantity: half-life
Phrase the answer as number then unit, nothing more needed.

For this compound ( C[C@H]1[C@H](N2CCS(=O)(=O)CC2)O[C@@H]2O[C@@]3(C)CC[C@H]4[C@H](C)CC[C@@H]1[C@@]24OO3 ), measured half-life is 2.79 h

----------
- test: Tmax in healthy human plasma at 40 mg, po administered as two 20 mg immediate release tablets daily for 3 days during 10 hrs overnight fasting state measured after 1 day
- Format: ADME, organism-based
quantity: Tmax (h)
Give just the number in h; leave the unit off.

Consider C[C@H]1[C@H](N2CCS(=O)(=O)CC2)O[C@@H]2O[C@@]3(C)CC[C@H]4[C@H](C)CC[C@@H]1[C@@]24OO3 . Its measured Tmax is 1.5

----------
- test: Apparent oral clearance in healthy human at 80 mg, po administered as four 20 mg immediate release tablets daily for 3 days during 10 hrs overnight fasting state measured after 3 day
- Format: ADME, organism-based
- assay conditions: in vivo
quantity: CL/F (mL/min)
Lab book: enter the figure in mL/min, no units written.

Sample C[C@H]1[C@H](N2CCS(=O)(=O)CC2)O[C@@H]2O[C@@]3(C)CC[C@H]4[C@H](C)CC[C@@H]1[C@@]24OO3 ; CL/F observed: 3950

----------
- test: Cmax in healthy human plasma at 40 mg, po administered as two 20 mg immediate release tablets daily for 3 days during 10 hrs overnight fasting state measured after 3 day
- Format: ADME, organism-based
- Design: dose 40 mg, route oral
quantity: Cmax (ng/mL)
Reply with just the number (in ng/mL).

For this compound ( C[C@H]1[C@H](N2CCS(=O)(=O)CC2)O[C@@H]2O[C@@]3(C)CC[C@H]4[C@H](C)CC[C@@H]1[C@@]24OO3 ), measured Cmax is 95
